B1: r16_88_TrROS_Hall (parent)
chain: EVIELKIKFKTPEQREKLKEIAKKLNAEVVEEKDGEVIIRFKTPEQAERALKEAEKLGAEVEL

Variants of: B1
ASSAY PROTOCOL: folding stability dG (cDNA display proteolysis); higher = more stable
CONDITION PARAMETERS: PBS, room temperature
Catalogue of folding stability dG readings, one per entry.
Express it in kcal/mol; write the number only.

>  <POLYMER SEQUENCE>
EVIELKIKFKTPEQREKLKEIAKKLNAEVLEEKDGEVIIRFKTPEQAERALKEAEKLGAEVEL [V30L]

>  <MEASURED ATTRIBUTE>
folding stability dG

>  <MEASURED VALUE>
4.44

$$$$
>  <POLYMER SEQUENCE>
EVIELKIKFKTPEQREKLNEIAKKLNAEVVEEKDGEVIIRFKTPEQAERALKEAEKLGAEVEL [K19N]

>  <MEASURED ATTRIBUTE>
folding stability dG

>  <MEASURED VALUE>
4.11

$$$$
>  <POLYMER SEQUENCE>
EVIELKIKFKTPEQREKLKEIAKKRNAEVVEEKDGEVIIRFKTPEQAERALKEAEKLGAEVEL [L25R]

>  <MEASURED ATTRIBUTE>
folding stability dG

>  <MEASURED VALUE>
4.09

$$$$
>  <POLYMER SEQUENCE>
EVIELKIKFKTPEQREKLKEIAKKLNAEVVEEEDGEVIIRFKTPEQAERALKEAEKLGAEVEL [K33E]

>  <MEASURED ATTRIBUTE>
folding stability dG

>  <MEASURED VALUE>
3.99

$$$$
>  <POLYMER SEQUENCE>
EVIELKNKFKTPEQREKLKEIAKKLNAEVVEEKDGEVIIRFKTPEQAERALKEAEKLGAEVEL [I7N]

>  <MEASURED ATTRIBUTE>
folding stability dG

>  <MEASURED VALUE>
2.98

$$$$

Query block: Requested read-out: folding stability dG. Entry: EVIELKIKFKTPEQREKLKEIAKKLNAEVVEEKDGEVIIRFKTPEQAERALKEAEKSGAEVEL [L57S]
Result block: 4.26

Query block: Which folding stability dG value is on record for EVIELKIKFKTPEQREKLKEIAKKLNAEVVEEKDSEVIIRFKTPEQAERALKEAEKLGAEVEL [G35S] ?
Result block: 4.48

Query block: Name the recorded folding stability dG for EVIELKIKFKTPEQREKLKEIAAKLNAEVVEEKDGEVIIRFKTPEQAERALKEAEKLGAEVEL [K23A] .
Result block: 4.21

Query block: Consider the variant shown here: EVIELKIKFKTPEQREVLKEIAKKLNAEVVEEKDGEVIIRFKTPEQAERALKEAEKLGAEVEL [K17V] What is its recorded folding stability dG?
Result block: 4.28

Query block: Param item = EVIELKIKFKTPEQREKLKEIAKKLNAEVVEEKDGEVIIRFKTPEQAEPALKEAEKLGAEVEL [R49P] ; retrieve measured folding stability dG.
Result block: 4.17

Query block: What value of folding stability dG has been recorded for this entry: EVIELKIKFKTPEQREKLKEIAKKLNAEVVEEKVGEVIIRFKTPEQAERALKEAEKLGAEVEL [D34V]
Result block: 4.4

Query block: Would you kindly share the measured folding stability dG for EVIELKIKFKTPEQREKLKEIAKKLNAEVVEEKDGEVIIRFKTPEQAERALKEAEKLGYEVEL [A59Y] ?
Result block: 4.5

Query block: Reported folding stability dG for EVIELKIKFKTPEQREKLKEIAKKLNAEVVEEKDGEVIIRFKTWEQAERALKEAEKLGAEVEL [P44W] : what is it?
Result block: 4.58

Query block: For the variant shown here, EVIELKIKFKTPEQREKLKEIAKKLNAEVVEEKDGEVIIRFKTPEQAERALKTAEKLGAEVEL [E53T] , give the reported folding stability dG.
Result block: 4.03

Query block: Can you share its folding stability dG? I mean this variant: EVIELKIKFKTPEQREKLKEIAKKLNAEVVEEFDGEVIIRFKTPEQAERALKEAEKLGAEVEL [K33F]
Result block: 4.42

Query block: Quick one: folding stability dG of EVIELKIKFKTPEQREKLKEIAKKLNAEVVEEKDGEVIIRFKTPEPAERALKEAEKLGAEVEL [Q46P] ?
Result block: 4.44

Query block: I would be grateful if you could share the reported folding stability dG for EVIELKIKFKTPEQREKLKEIAKKLNAEVVEEKDGEVIIRFKTPEQAERALKEWEKLGAEVEL [A54W] .
Result block: 4.08

Query block: Can you share its folding stability dG? I mean this variant: EVIELKIKFKTPEQREKLKEIAKKLNAEVVEELDGEVIIRFKTPEQAERALKEAEKLGAEVEL [K33L]
Result block: 4.59

Query block: Param item = EVIELKIKFKTPEQREKLKEIAKKLNAEHVEEKDGEVIIRFKTPEQAERALKEAEKLGAEVEL [V29H] ; retrieve measured folding stability dG.
Result block: 4.53
